Measured values drawn from PubChem BioAssay (NCI) for this set.

In this section we review reported TGI values for a set of compounds.
Tested on: SF-268 CNS
Assay: NCI tumour cell line growth inhibition, 48 h
attribute.measured: TGI

compound	measured.result
C=C(C)C1Cc2c(cc(O)c3c(=O)c4c(oc23)C(O)Oc2cc(OC)c(OC)cc2-4)O1 (stereo not given)	> 10 µM
N#Cc1c(O)c(N=Nc2ccccc2F)c(=O)n2c1[nH]c1ccccc12	> 100 µM
CC(=O)[C@@]1(O)CC[C@H]2[C@@H]3C[C@H](C)C4=CC(=O)CC[C@]4(C)[C@H]3[C@@H](O)C[C@@]21C	> 100 µM
O=S1CCS(=O)CCS(=O)CC1 (stereo not given)	> 100 µM
Cc1ccc2c(=O)c3cccc(CC(=O)O)c3[nH]c2c1C	90.5 µM
